As shown below, each of these compounds has a reported pIC50 value.
System: MCF-7 (human breast cancer cell lines)
Assay: CCK8 cytotoxicity assay
Format: cell-based
Settings: Homo sapiens, MCF7, 60 h, read-out: IC50 MCF-7
pIC50: −log10 of the molar value.

Query: Which pIC50 is reported for this compound? COC1=C[C@@H]2[C@@H]3Cc4c(CN5CCCC5)cc(OC)c(OC(=O)Cc5ccc(Cl)c(Cl)c5)c4[C@]2(CCN3C)CC1=O
Reply: < 4.60

Query: Which pIC50 reading was recorded for the compound COC1=C[C@@H]2[C@@H]3Cc4c(CN5CCCC5)cc(OC)c(OC(=O)Cc5ccccc5Cl)c4[C@]2(CCN3C)CC1=O ?
Reply: < 4.60

As a next step, examine the compound that follows.
Query: Request the reported pIC50 associated with COC1=C[C@@H]2[C@@H]3Cc4c(CN5CCCC5)cc(OC)c(OC(=O)Cc5ccccc5C)c4[C@]2(CCN3C)CC1=O
Reply: < 4.60

Where do these numbers come from? They come from paper PMC8200971.
